drug sensitivity score by entry:
System: OVCAR5
test: drug sensitivity score (DSS) from 5-point dose-response viability curve (DSS (area-under-curve based score)); higher = more sensitive (stronger growth inhibition or killing); extreme values may be limits of the assay
assay.conditions: exposure time: 72 h; concentration range: 5 concentrations over 10,000-fold range
No unit in the answer, please; the number alone is enough.

>  <chemical.smiles>
C=CC(=O)N1CC/C(=C\c2ccc(F)c([N+](=O)[O-])c2)C(=O)/C(=C/c2ccc(F)c([N+](=O)[O-])c2)C1

>  <drug sensitivity score>
17.1

$$$$
>  <chemical.smiles>
Nc1nc(Cl)nc2c1ncn2[C@H]1C[C@H](O)[C@@H](CO)O1

>  <drug sensitivity score>
2.1

$$$$
>  <chemical.smiles>
N#CC1(c2ccc(NC(=O)c3cccnc3NCc3ccncc3)cc2)CCCC1

>  <drug sensitivity score>
0.5

$$$$

# next compound below
Lab note: C=C1C[C@@H]2[C@H](CC[C@]3(C)C(=O)CC[C@@H]23)[C@@]2(C)C=CC(=O)C=C12 gave drug sensitivity score of 0
